Overview of recorded Alanine transaminase, ALT for various substances
- System: ICR (CD-1) mice
- assay remarks: In vivo toxicity in mice (SC, IN, IP routes)
- Design: unit not given here
- particulars: serum; IN, 3 doses (1hr, 12hr, 24hr); head doses: RN7-IN10, RN7-IN8 20 mg/kg; RN7-IN9, RN7-IN6 10 mg/kg; day 7; mean±SD, 4 mice
Reply with the value as a number alone.

{"columns": ["substance", "measured target", "experimental readout", "endpoint result"],
 "data": [
  ["FLGGLIKKWPWWPWRR-NH2 [RN7-IN9, hybrid peptide of ranalexin (residues 1-7) and indolicidin (residues 5-13)]", "ICR (CD-1) mice", "Alanine transaminase, ALT", 41.22],
  ["FLGGLIKWKWPWWPWRR-NH2 [RN7-IN10, hybrid peptide of ranalexin (residues 1-7) and indolicidin (residues 4-13)]", "ICR (CD-1) mice", "Alanine transaminase, ALT", 66.9],
  ["FLGGLIKWWPWRR-NH2 [RN7-IN6, hybrid peptide of ranalexin (residues 1-7) and indolicidin (residues 8-13)]", "ICR (CD-1) mice", "Alanine transaminase, ALT", 43.2]
]}

Here is another substance to look at.
Query :: # get_value(readout='Alanine transaminase, ALT', item= FLGGLIKWPWWPWRR-NH2 [RN7-IN8, hybrid peptide of ranalexin (residues 1-7) and indolicidin (residues 6-13)] )
Result :: 44.5

* * *

- Test system: ICR (CD-1) mice
- assay remarks: In vivo toxicity in mice (SC, IN, IP routes)
- Set-up: unit not given here
- particulars: serum; IN, 3 doses (1hr, 12hr, 24hr); head doses: RN7-IN10, RN7-IN8 20 mg/kg; RN7-IN9, RN7-IN6 10 mg/kg; day 7; mean±SD, 4 mice
experimental readout: Total bilirubin
In your answer, state the number alone without any accompanying words.

{"columns": ["substance", "Total bilirubin"],
 "data": [
  ["FLGGLIKWPWWPWRR-NH2 [RN7-IN8, hybrid peptide of ranalexin (residues 1-7) and indolicidin (residues 6-13)]", 2.21],
  ["FLGGLIKKWPWWPWRR-NH2 [RN7-IN9, hybrid peptide of ranalexin (residues 1-7) and indolicidin (residues 5-13)]", 2.01]
]}

Query :: Request the reported Total bilirubin associated with FLGGLIKWKWPWWPWRR-NH2 [RN7-IN10, hybrid peptide of ranalexin (residues 1-7) and indolicidin (residues 4-13)]
Result :: 2.15

Query :: I would be grateful if you could share the reported Total bilirubin for FLGGLIKWWPWRR-NH2 [RN7-IN6, hybrid peptide of ranalexin (residues 1-7) and indolicidin (residues 8-13)] .
Result :: 1.95

* * *

- System: ICR (CD-1) mice
- assay remarks: In vivo toxicity in mice (SC, IN, IP routes)
- particulars: IP, 3 doses (1hr, 12hr, 24hr); RN7-IN10, RN7-IN8 20 mg/kg; RN7-IN9, RN7-IN6 10 mg/kg; day 7; mean±SD, 4 mice
experimental readout: Mean corpuscular haemoglobin concentration, MCHC (g/dL)
Write the number in g/dL without appending the unit.

The following substances have reported results that may help.
{"columns": ["substance", "endpoint result"],
 "data": [
  ["FLGGLIKWKWPWWPWRR-NH2 [RN7-IN10, hybrid peptide of ranalexin (residues 1-7) and indolicidin (residues 4-13)]", 33.85],
  ["FLGGLIKWWPWRR-NH2 [RN7-IN6, hybrid peptide of ranalexin (residues 1-7) and indolicidin (residues 8-13)]", 33.42],
  ["FLGGLIKKWPWWPWRR-NH2 [RN7-IN9, hybrid peptide of ranalexin (residues 1-7) and indolicidin (residues 5-13)]", 33.63]
]}

In the following, a different substance is considered.
Query :: # returns recorded Mean corpuscular haemoglobin concentration, MCHC (system: ICR (CD-1) mice) for FLGGLIKWPWWPWRR-NH2 [RN7-IN8, hybrid peptide of ranalexin (residues 1-7) and indolicidin (residues 6-13)]
Result :: 34.17
